Kindly supply the reported inhibition values for the records listed here.
molecular target: Serine/threonine-protein kinase PAK 1 (Homo sapiens) (UniProt Q13153); settings: at 0.1 µM;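 note: values are mean PAK1 inhibition from the GSK PKIS kinase inhibitor set screen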
Sequence (Q13153 whole entry): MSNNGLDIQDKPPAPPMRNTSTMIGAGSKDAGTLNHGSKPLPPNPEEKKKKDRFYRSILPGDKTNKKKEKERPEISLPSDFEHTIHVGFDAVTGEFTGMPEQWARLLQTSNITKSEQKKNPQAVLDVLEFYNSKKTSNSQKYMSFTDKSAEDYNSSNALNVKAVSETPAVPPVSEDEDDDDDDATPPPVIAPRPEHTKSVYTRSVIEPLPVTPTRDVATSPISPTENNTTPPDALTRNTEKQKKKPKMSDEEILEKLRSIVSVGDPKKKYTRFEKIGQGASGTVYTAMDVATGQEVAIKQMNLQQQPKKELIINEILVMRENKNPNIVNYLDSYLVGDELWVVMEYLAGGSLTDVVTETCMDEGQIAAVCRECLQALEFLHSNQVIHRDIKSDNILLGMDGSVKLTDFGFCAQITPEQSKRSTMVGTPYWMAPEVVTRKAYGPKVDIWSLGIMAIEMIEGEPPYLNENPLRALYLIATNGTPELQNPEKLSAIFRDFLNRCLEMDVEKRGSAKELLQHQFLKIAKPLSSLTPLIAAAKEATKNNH
Give bare numbers, in %.

Dear reader, for each entry below, please note its inhibition.
1. Cc1nnc(-c2ccc(C)c(-c3ccc(C(=O)NCc4ccc(Cl)cc4)cc3)c2)o1
2. CN(C)CCOc1ccc(-c2cc(-c3ccc4c(c3)CCC4=NO)c(-c3ccncc3)o2)cc1
3. CS(=O)(=O)CCNCc1cc(-c2cc3c(Nc4ccc(OCc5cccc(F)c5)c(Cl)c4)ncnc3s2)cs1

(A)
[7.92, -4.98, 10.9]

====

Kindly supply the reported inhibition values for the records listed here.
target: Vascular endothelial growth factor receptor 3 (Homo sapiens); conditions: at 0.1 µM
Description: GSK_PKIS: FLT4 mean inhibition at 0.1 uM [Nanosyn]
Numbers only, in %.

// worked examples, inhibition included
INSERT INTO measurements (molecule_smiles, measurement_target, measurement_kind, value_measured) VALUES
  ('N#Cc1ccc(Oc2nccc(-c3c(-c4ccc(F)cc4)ncn3C3CCNCC3)n2)cc1', 'Vascular endothelial growth factor receptor 3 (Homo sapiens)', 'inhibition', -3.29),
  ('CCC(=O)Nc1ccc(C)c(-c2ccc(C(=O)NCC3CC3)cc2)c1', 'Vascular endothelial growth factor receptor 3 (Homo sapiens)', 'inhibition', 3.63),
  ('CS(=O)(=O)CCNCc1cc(-c2cc3c(Nc4ccc(OCc5cccc(F)c5)c(Cl)c4)ncnc3s2)cs1', 'Vascular endothelial growth factor receptor 3 (Homo sapiens)', 'inhibition', 1.58),
  ('COc1cc2ncn(-c3cc(OCCc4ccccc4)c(C(N)=O)s3)c2cc1OC', 'Vascular endothelial growth factor receptor 3 (Homo sapiens)', 'inhibition', 1.49),
  ('NS(=O)(=O)c1ccc(N/N=C2\C(=O)Nc3ccc(C(=O)NCCCn4ccnc4)cc32)cc1', 'Vascular endothelial growth factor receptor 3 (Homo sapiens)', 'inhibition', 4.15),
  ('Fc1ccc(-c2c(-c3ccncc3)nc3n2CCS3)cc1', 'Vascular endothelial growth factor receptor 3 (Homo sapiens)', 'inhibition', -5.59),
  ('CCc1cccc(CC)c1/C=C/c1cncc(C(=O)NC)c1', 'Vascular endothelial growth factor receptor 3 (Homo sapiens)', 'inhibition', 1.11),
  ('COC(=O)Nc1nc2ccc(Sc3ccc(NC(=O)Nc4cc(C(F)(F)F)ccc4F)cc3)cc2[nH]1', 'Vascular endothelial growth factor receptor 3 (Homo sapiens)', 'inhibition', 14.8),
  ('O=C(NCC1CC1)c1ccc(-c2cccc(C(=O)NC3CC3)c2)cc1', 'Vascular endothelial growth factor receptor 3 (Homo sapiens)', 'inhibition', 1.32),
  ('NC(=O)Cc1ccccc1Oc1nccc(-c2c(-c3ccc(F)cc3)ncn2C2CCNCC2)n1', 'Vascular endothelial growth factor receptor 3 (Homo sapiens)', 'inhibition', 1.36);

Dear reader, for each entry below, please note its inhibition.
1. Fc1ccc(-c2ncn(C3CCNCC3)c2-c2ccnc(Oc3ccc(F)c(F)c3)n2)cc1
2. COc1ccc(C2=C(N3CCc4ccccc43)C(=O)NC2=O)cc1

(A)
-4.95
1.33

====

Kindly supply the reported inhibition values for the records listed here.
Target: Serine/threonine-protein kinase 3 (Homo sapiens);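 note: reported value is the mean percent inhibition of MST2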
Sequence (whole entry): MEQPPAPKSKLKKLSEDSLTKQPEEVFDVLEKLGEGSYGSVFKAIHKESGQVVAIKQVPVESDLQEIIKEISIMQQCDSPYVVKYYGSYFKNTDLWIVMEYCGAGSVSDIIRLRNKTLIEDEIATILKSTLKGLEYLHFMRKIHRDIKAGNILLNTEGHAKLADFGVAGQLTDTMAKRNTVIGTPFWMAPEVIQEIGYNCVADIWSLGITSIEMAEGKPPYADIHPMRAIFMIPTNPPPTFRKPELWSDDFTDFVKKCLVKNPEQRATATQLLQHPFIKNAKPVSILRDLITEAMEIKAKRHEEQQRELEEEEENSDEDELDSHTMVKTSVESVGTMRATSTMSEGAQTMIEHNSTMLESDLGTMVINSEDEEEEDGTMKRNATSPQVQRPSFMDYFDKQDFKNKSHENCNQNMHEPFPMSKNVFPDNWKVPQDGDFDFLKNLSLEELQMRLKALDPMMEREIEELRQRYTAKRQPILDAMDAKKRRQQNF
Conditions: at 0.1 µM
Give bare numbers, in %.

INSERT INTO measurements (molecule_smiles, measurement_target, unit_info, value_measured) VALUES
  ('CN(C)c1ccc2c(c1)/C(=C/Nc1ccc(S(N)(=O)=O)cc1)C(=O)N2', 'Serine/threonine-protein kinase 3 (Homo sapiens)', '%', 32.3);

Dear reader, for each entry below, please note its inhibition.
1. COc1cc2ncn(-c3cc(OCCc4ccccc4)c(C(N)=O)s3)c2cc1OC
2. COc1cccc(/C=N/Nc2ncnc3c2cnn3-c2cccc(OC)c2)c1
3. O=C(Nc1n[nH]c2nc(-c3ccc(O)cc3)c(Br)cc12)C1CC1
4. Cc1ccc(NC(=O)c2ccoc2)cc1-c1ccc(C(=O)NCC2CC2)cc1
5. Fc1ccc(-c2ncn(C3CCNCC3)c2-c2ccnc(Oc3ccc(F)c(F)c3)n2)cc1
6. C/C(Nc1ccc(S(N)(=O)=O)cc1)=C1/C(=O)Nc2ccccc21
7. COc1cc(N2CCN(C(C)C)CC2)ccc1Nc1nc(Nc2ccc(F)cc2C(=O)NC[C@@H](O)CO)c2cc[nH]c2n1
8. Cc1ccc(C(=O)NC2CCC2)cc1-c1ccc(C(=O)NCC2CC2)cc1

(A)
1: 2.95; 2: 3.29; 3: 6.31; 4: 4.78; 5: 10.2; 6: 3.63; 7: 6.36; 8: 1.04

Dear reader, for each entry below, please note its inhibition.
1. NCc1ccc(-n2c(-c3nonc3N)nc3cnccc32)cc1
2. COc1cc(C)c(N(C)C(=O)CN(C)C)cc1Nc1nc(Nc2cccc(F)c2C(N)=O)c2cc[nH]c2n1
3. O=C(Nc1n[nH]c2cc(-c3ccccc3)ccc12)C1CC1
4. CS(=O)(=O)CCNCc1cc(-c2cc3c(Nc4ccc(OCc5cccc(F)c5)c(Cl)c4)ncnc3s2)cs1
5. NS(=O)(=O)c1ccc(Nc2cc(-c3ccc(O)c(F)c3)n[nH]2)cc1

(A)
[10.2, 5.2, 5.18, 6.59, -1.84]
